MEASURED_ON: UniProtKB P08069
Sequence (P08069 whole entry, looked up): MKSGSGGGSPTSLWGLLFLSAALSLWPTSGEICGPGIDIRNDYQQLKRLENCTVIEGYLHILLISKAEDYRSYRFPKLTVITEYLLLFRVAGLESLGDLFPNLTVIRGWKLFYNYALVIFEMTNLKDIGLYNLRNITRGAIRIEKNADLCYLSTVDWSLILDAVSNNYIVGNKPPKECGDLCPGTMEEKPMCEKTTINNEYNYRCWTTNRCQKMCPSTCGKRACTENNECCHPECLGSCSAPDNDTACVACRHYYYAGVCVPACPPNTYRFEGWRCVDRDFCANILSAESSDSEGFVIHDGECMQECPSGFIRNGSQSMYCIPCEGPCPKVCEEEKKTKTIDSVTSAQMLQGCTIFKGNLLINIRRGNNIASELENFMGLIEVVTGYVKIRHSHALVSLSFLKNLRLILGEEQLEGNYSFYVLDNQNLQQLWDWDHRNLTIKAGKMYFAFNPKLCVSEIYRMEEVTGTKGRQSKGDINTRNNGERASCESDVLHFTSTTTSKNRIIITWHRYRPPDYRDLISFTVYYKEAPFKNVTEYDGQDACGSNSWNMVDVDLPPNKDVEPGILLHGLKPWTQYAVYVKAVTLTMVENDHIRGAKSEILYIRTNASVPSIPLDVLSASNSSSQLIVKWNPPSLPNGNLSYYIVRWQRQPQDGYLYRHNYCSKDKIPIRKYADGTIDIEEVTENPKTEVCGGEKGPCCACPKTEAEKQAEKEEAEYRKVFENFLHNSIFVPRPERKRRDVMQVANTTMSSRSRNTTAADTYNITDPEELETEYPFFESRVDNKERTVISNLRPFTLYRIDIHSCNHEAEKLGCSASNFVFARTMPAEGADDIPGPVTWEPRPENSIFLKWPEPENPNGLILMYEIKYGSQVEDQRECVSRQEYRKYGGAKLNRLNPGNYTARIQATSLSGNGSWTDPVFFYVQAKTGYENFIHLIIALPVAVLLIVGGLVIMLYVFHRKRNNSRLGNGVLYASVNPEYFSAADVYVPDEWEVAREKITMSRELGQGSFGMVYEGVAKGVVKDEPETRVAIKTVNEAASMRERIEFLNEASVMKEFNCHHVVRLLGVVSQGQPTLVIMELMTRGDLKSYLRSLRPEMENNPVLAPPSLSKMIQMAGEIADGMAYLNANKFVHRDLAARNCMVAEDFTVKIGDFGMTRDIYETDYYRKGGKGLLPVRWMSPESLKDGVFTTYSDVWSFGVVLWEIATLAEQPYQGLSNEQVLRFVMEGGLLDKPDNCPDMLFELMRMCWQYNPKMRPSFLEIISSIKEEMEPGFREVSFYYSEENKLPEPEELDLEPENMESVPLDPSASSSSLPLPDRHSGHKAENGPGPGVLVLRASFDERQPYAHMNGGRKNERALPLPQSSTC
METHOD_SUMMARY: Free Choice Kinase Assay Projects, Flashplate
CONDITION_CONTEXT: compound 10.0 µM; ATP 1 µM
Give measured residual activity for each item. Keep answers brief.
Give bare numbers, in %.

Record excerpt, results attached:
Q: Reported residual activity for CSc1nc(-c2ccnc(F)c2)c(-c2ccc(F)cc2)[nH]1 : what is it?
Ans: 96

Q: Reported residual activity for CSc1ccccc1CSc1nc(-c2ccncc2)c(-c2ccc(F)cc2)[nH]1 : what is it?
Ans: 60

// batch mode: one residual activity value per listed entry
1. Fc1ccc(-c2[nH]c(SCc3cccc4ccccc34)nc2-c2ccncc2)cc1
2. Fc1ccc(-c2[nH]c(SCCc3ccccc3)nc2-c2ccncc2)cc1
3. On1c(CCc2ccccc2)nc(-c2ccncc2)c1-c1ccc(F)cc1
4. CC(Nc1cc(-c2nc(SCc3ccccc3)[nH]c2-c2ccc(F)cc2)ccn1)c1ccccc1 (stereo not given)

Ans:
17
43
17
20

// batch mode: one residual activity value per listed entry
1. CSc1nc(-c2ccnc(NC(C)=O)c2)c(-c2ccc(F)cc2)n1C
2. Fc1ccc(-c2[nH]c(SCC3CCCCC3)nc2-c2ccncc2)cc1

Ans:
1: 78; 2: 22

// batch mode: one residual activity value per listed entry
1. Oc1cccc(CSc2nc(-c3ccncc3)c(-c3ccc(F)cc3)[nH]2)c1
2. CSc1nc(-c2ccnc(N(C(=O)C3CC3)C(=O)C3CC3)c2)c(-c2ccc(F)cc2)n1C

Ans:
79
36

###

MEASURED_ON: EGFR (human)
METHOD_SUMMARY: Free Choice Kinase Assay Projects, Flashplate
CONDITION_CONTEXT: compound 10.0 µM; ATP 0.3 µM
PROPERTY: residual activity (%)
One number for each entry, in %.

Record excerpt, results attached:
Q: Reported residual activity for CSc1nc(-c2ccnc(NC(C)=O)c2)c(-c2ccc(F)cc2)n1C : what is it?
Ans: 17

Q: Reported residual activity for Oc1ccc(CSc2nc(-c3ccncc3)c(-c3ccc(F)cc3)[nH]2)cc1 : what is it?
Ans: 20

Q: Reported residual activity for CSc1nc(-c2ccnc(NC(=O)C3CC3)c2)c(-c2ccc(F)cc2)n1C : what is it?
Ans: 11

Q: Reported residual activity for Fc1ccc(-c2[nH]c(SCc3cccc4ccccc34)nc2-c2ccncc2)cc1 : what is it?
Ans: 8

Q: Reported residual activity for Fc1ccc(-c2[nH]c(SCc3ccccc3)nc2-c2ccnc(F)c2)cc1 : what is it?
Ans: 17

Q: Reported residual activity for Fc1ccc(-c2[nH]c(SCCCc3ccccc3)nc2-c2ccncc2)cc1 : what is it?
Ans: 31

Q: Reported residual activity for Oc1cccc(CSc2nc(-c3ccncc3)c(-c3ccc(F)cc3)[nH]2)c1 : what is it?
Ans: 3

Q: Reported residual activity for Fc1ccc(-c2[nH]c(CCc3ccccc3)nc2-c2ccncc2)cc1 : what is it?
Ans: 1

// batch mode: one residual activity value per listed entry
1. Fc1ccc(-c2[nH]c(SCc3ccccc3)nc2-c2ccncc2)cc1
2. N#CCSc1nc(-c2ccncc2)c(-c2ccc(F)cc2)[nH]1
3. On1c(/C=C/c2ccccc2)nc(-c2ccncc2)c1-c1ccc(F)cc1

Ans:
19
2
1

###

MEASURED_ON: MAPK14 (human)
METHOD_SUMMARY: Free Choice Kinase Assay Projects, Flashplate
CONDITION_CONTEXT: compound 10.0 µM; ATP 1 µM
Binary label based on residual activity with cut-off 7%: below gives Yes, not below gives No.

Examples with answers:
Q: In the record for Oc1ccccc1CSc1nc(-c2ccncc2)c(-c2ccc(F)cc2)[nH]1 , is residual activity less than 7%?
Ans: Yes

Q: In the record for Fc1ccc(-c2[nH]c(SCC3CCCCC3)nc2-c2ccncc2)cc1 , is residual activity less than 7%?
Ans: No

Q: In the record for CSc1nc(-c2ccnc(F)c2)c(-c2ccc(F)cc2)[nH]1 , is residual activity less than 7%?
Ans: Yes

Q: In the record for COc1ccc(C(=O)Nc2cc(-c3nc(SC)n(C)c3-c3ccc(F)cc3)ccn2)cc1 , is residual activity less than 7%?
Ans: Yes

Q: In the record for Fc1ccc(-c2[nH]c(SCCCc3ccccc3)nc2-c2ccncc2)cc1 , is residual activity less than 7%?
Ans: No

Q: In the record for CSc1nc(-c2ccnc(NC(=O)C3CCCC3)c2)c(-c2ccc(F)cc2)n1C , is residual activity less than 7%?
Ans: Yes

Next:
Q: In the record for Fc1ccc(-c2[nH]c(/C=C/c3ccccc3)nc2-c2ccncc2)cc1 , is residual activity less than 7%?
Ans: Yes

Q: In the record for CSc1ccc(CSc2nc(-c3ccncc3)c(-c3ccc(Br)cc3)[nH]2)cc1 , is residual activity less than 7%?
Ans: No

Q: In the record for Oc1cccc(CSc2nc(-c3ccncc3)c(-c3ccc(F)cc3)[nH]2)c1 , is residual activity less than 7%?
Ans: Yes
